# system-tested: T1, human GIP receptor (human) (UniProt P48546)
# T1 sequence (looked up): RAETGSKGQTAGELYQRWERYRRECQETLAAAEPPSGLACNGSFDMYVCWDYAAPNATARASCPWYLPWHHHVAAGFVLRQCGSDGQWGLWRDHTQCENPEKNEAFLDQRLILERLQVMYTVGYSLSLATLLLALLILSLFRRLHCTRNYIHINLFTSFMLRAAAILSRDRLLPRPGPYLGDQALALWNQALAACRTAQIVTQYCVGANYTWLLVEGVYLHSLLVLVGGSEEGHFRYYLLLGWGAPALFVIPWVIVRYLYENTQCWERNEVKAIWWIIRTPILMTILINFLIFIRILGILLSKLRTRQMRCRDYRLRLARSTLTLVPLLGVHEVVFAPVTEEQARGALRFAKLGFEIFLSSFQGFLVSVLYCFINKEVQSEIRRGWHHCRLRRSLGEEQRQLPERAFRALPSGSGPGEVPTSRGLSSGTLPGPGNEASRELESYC
# test-summary: cell-based or functional assay
outcome-measure: cAMP Rel EC50 (in the presence of 1% HSA)

{"binder": "YXQGTFTSDFSXXLDKKAQXAFIEWLLEGGSSSGAPPPSGH (Aib, Orn, αMeL; K acylated AEEA-γGlu-C18 diacid; C-amide; synthetic construct; SITE 2: note = 2-Aminoisobutyric Acid; SITE 12: note = L-ornithine; SITE 13: note = alpha-methyl-leucine; SITE 17: note = Lysine is chemically modified through conjugation of the epsilon-amino group of the Lysine side chain with (2-[2-(2-Amino-ethoxy)-ethoxy]-acetyl)-(gamma-Glu)) [Example 270]", "result": "36.5 nM"}
{"binder": "YXQGTXTSDXSILLDKKAQXAFIEYLEEGGPSSGAPPPSGSGE (non-natural residues; lysine acylated with (γ-Glu)2-C18 diacid; C-terminal amide; synthetic construct; SITE 2: note = 2-Aminoisobutyric Acid; SITE 6: note = alpha-methyl-2-fluoro-L-phenylalanine; SITE 10: note = 3-(4-Pyridyl)-L-alanine; SITE 17: note = Lysine is chemically modified through conjugation of the epsilon-amino group of the Lysine side chain with (gamma-Glu)2-CO-(CH2)1) [Example 618]", "result": "4.63 nM"}

Which measured cAMP Rel EC50 (in the presence of 1% HSA) value corresponds to YXQGTFTSDFSXXLDKKAQXAFIEYLLEXGPSSGAPPPSGX (Aib, Orn, αMeL, 4Pal; lipidated Lys; C-terminal amide; synthetic construct; SITE 2: note = 2-Aminoisobutyric Acid; SITE 12: note = L-ornithine; SITE 13: note = alpha-methyl-leucine; SITE 17: note = Lysine is chemically modified through conjugation of the epsilon-amino group of the Lysine side chain with (2-[2-(2-Amino-ethoxy)-ethoxy]-acetyl)-(gamma-Glu)) [Example 279] ?
11.6 nM

What cAMP Rel EC50 (in the presence of 1% HSA) value was documented for this binder, YXQGTXTSDXSIXLDKKAQXAFIEYLEEGGPSSGAPPPEGTGE (non-natural residues; acylated Lys; C-terminal amide; synthetic construct; SITE 2: note = 2-Aminoisobutyric Acid; SITE 6: note = alpha-methyl-2-fluoro-L-phenylalanine; SITE 10: note = 3-(4-Pyridyl)-L-alanine; SITE 13: note = alpha-methyl-leucine; SITE 17: note = Lysine is chemically modified through conjugation of the epsilon-amino group of the Lysine) [Example 626] ?
1.75 nM

Any idea what its cAMP Rel EC50 (in the presence of 1% HSA) is? The binder is YXQGTFTSDFSKXLDKKAQXAFIEYLLAGGPSSGAPPPSGG (synthetic construct; SITE 2: note = 2-Aminoisobutyric Acid; SITE 13: note = alpha-methyl-leucine; SITE 17: note = Lysine is chemically modified through conjugation of the epsilon-amino group of the Lysine side chain with (2-[2-(2-Amino-ethoxy)-ethoxy]-acetyl)-(gamma-Glu)-CO-(CH2) 18-CO2H; SITE 20: n) [Example 12]
30.2 nM

Look at this binder and give its reported cAMP Rel EC50 (in the presence of 1% HSA). YXQGTFTSDFSKXLDKKAQXAFIEYLLAGGPSSGEPPPSSG (synthetic construct; SITE 2: note = 2-Aminoisobutyric Acid; SITE 13: note = alpha-methyl-leucine; SITE 17: note = Lysine is chemically modified through conjugation of the epsilon-amino group of the Lysine side chain with (2-[2-(2-Amino-ethoxy)-ethoxy]-acetyl)-(gamma-Glu)-CO-(CH2) 18-CO2H; SITE 20: n) [Example 7]
50.6 nM

What measured cAMP Rel EC50 (in the presence of 1% HSA) goes with YXQGTFTSDFSXXLDKKAQXAFIEWLLEGGXSSGAPPPSGE (Aib, Orn, αMeL, 4Pal; AEEA-γGlu-C18 diacid on Lys; amide; synthetic construct; SITE 2: note = 2-Aminoisobutyric Acid; SITE 12: note = L-ornithine; SITE 13: note = alpha-methyl-leucine; SITE 17: note = Lysine is chemically modified through conjugation of the epsilon-amino group of the Lysine side chain with (2-[2-(2-Amino-ethoxy)-ethoxy]-acetyl)-(gamma-Glu)) [Example 267] ?
55.5 nM

// data source = patent US20240270821A1
